Assay: Cytotoxicity against African green monkey COS7 cells assessed as inhibition of cell growth at 50 uM relative to control
Assay type: cell-based
Conditions: chlorocebus aethiops, COS-7 cells
inhibition at 50 µM reference
measured_attribute: inhibition at 50 µM

• O=C(NC1CCCCC1)C1c2cccc(c2)-c2ccc(cc2)OCc2cn(nn2)CCOc2ccc(cc2)CC(=O)N1Cc1ccccc1 (centres undefined) = 9.9%
• CCCCCCCCCCCCNC(=O)C1c2cccc(c2)-c2ccc(cc2)OCc2cn(nn2)CCCCCOc2ccc(cc2)CC(=O)N1c1ccc(C(F)(F)F)cc1 (centres undefined) = 10.2%
• O=C(NC1CCCCC1)C1c2cccc(c2)-c2ccc(cc2)OCc2cn(nn2)CCCCCOc2ccc(cc2)CC(=O)N1c1ccc(C(F)(F)F)cc1 (centres undefined) = 45.4%
• O=C(NC1CCCCC1)C1c2cccc(c2)-c2ccc(cc2)OCc2cn(nn2)CCCOc2ccc(cc2)CC(=O)N1c1ccc(C(F)(F)F)cc1 (centres undefined) = 30.9%
